biological target: IRAK4 (Homo sapiens); construct: Degradation of IRAK4 in OCI-LY10 was quantitatively measured using Meso Scale Discovery technology; endogenous in cells; host or cells: OCI-LY10; assay: IRAK4 MSD Degradation in OCI-LY10; assay type: cell-based; conditions: OCI-LY10 cells, 24 hrs incubation, MSD; read-out: IRAK4 degradation in OCI-LY10 at 24 hrs: DC50
Parameter DC50: see the listing below.

Consider the reported DC50 for these compounds:
- compound: "Cc1cc2nn([C@H]3CC[C@H](CN4CCC(c5cccc6c5n(C)c(=O)n6C5CCC(=O)NC5=O)C(F)(F)C4)CC3)cc2cc1NC(=O)c1cccc(C(F)(F)F)n1 (stereo partly drawn)"
  DC50: "> 200 nM"
- compound: "Cn1c(=O)n(C2CCC(=O)NC2=O)c2cccc([C@H]3CCN(C[C@H]4CC[C@H](n5cc6cc(NC(=O)c7cccc(C(F)F)n7)ccc6n5)CC4)C[C@H]3F)c21 (stereo partly drawn)"
  DC50: "> 200 nM"

We now examine a further compound.
Suppose we examine the compound Cn1c(=O)n(C2CCC(=O)NC2=O)c2cccc(N3CCN(CC4COC5(C4)CN(C[C@H]4CC[C@H](n6cc7cc(NC(=O)c8cccc(C(F)(F)F)n8)ccc7n6)CC4)C5)CC3)c21 (stereo partly drawn) ; what DC50 value has been reported?
> 200 nM

---

Biological target: IRAK4 (Homo sapiens)
Construct: Degradation of IRAK4 in OCI-LY10 was quantitatively measured using Meso Scale Discovery technology; endogenous in cells; host or cells: OCI-LY10
Sequence (Q9NWZ3 1-460): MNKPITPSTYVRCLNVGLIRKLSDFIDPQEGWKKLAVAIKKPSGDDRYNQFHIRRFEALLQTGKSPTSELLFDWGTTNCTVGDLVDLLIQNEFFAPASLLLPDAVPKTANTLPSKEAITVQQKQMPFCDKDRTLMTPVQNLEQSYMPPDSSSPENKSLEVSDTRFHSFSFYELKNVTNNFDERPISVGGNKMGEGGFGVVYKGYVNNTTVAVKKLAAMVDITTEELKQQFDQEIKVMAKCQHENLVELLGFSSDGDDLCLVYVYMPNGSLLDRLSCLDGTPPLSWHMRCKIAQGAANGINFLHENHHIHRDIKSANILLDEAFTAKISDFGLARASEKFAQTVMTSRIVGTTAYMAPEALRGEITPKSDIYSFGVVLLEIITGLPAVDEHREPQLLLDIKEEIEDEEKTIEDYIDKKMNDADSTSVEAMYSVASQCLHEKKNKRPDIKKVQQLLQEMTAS
Assay: IRAK4 MSD Degradation in OCI-LY10
Format: cell-based
Conditions: OCI-LY10 cells, 4 hrs incubation, MSD; read-out: IRAK4 degradation in OCI-LY10 at 4 hrs: DC50
assayEndpoint: DC50

- compound: "[2H]C([2H])([2H])Oc1ccc2c(c1C1CCN(C[C@H]3CC[C@H](n4cc5cc(NC(=O)c6cccc(C(F)(F)F)n6)ncc5n4)CC3)CC1)n(C([2H])([2H])[2H])c(=O)n2C1CCC(=O)NC1=O (stereo partly drawn)"
  DC50: "> 200 nM"

Find the recorded DC50 belonging to Cn1c(=O)n(C2CCC(=O)NC2=O)c2cccc(C#CCN3CCN(C[C@H]4CC[C@H](n5cc(NC(=O)c6cnn7ccc(C8CCOCC8)nc67)c(C(F)F)n5)CC4)CC3)c21 (stereo partly drawn) and report it.
> 200 nM

Bench note: what DC50 did Cc1cccc(C(=O)Nc2cc3cn([C@H]4CC[C@H](CN5CC[C@H](c6cccc7c6n(C)c(=O)n7C6CCC(=O)NC6=O)[C@@H](F)C5)CC4)nc3cn2)n1 (stereo partly drawn) show?
> 200 nM
